Exercise: for every item that follows, state its recorded Mean Fluorescence Intensity (MFI), uptake 37C-4C, at 37 nM.
target under test: T1, human sortilin stably expressed on HEK 293 cells (HEK-SORT1 cells) (human, UniProt Q99523 78-831)
T1 sequence (looked up): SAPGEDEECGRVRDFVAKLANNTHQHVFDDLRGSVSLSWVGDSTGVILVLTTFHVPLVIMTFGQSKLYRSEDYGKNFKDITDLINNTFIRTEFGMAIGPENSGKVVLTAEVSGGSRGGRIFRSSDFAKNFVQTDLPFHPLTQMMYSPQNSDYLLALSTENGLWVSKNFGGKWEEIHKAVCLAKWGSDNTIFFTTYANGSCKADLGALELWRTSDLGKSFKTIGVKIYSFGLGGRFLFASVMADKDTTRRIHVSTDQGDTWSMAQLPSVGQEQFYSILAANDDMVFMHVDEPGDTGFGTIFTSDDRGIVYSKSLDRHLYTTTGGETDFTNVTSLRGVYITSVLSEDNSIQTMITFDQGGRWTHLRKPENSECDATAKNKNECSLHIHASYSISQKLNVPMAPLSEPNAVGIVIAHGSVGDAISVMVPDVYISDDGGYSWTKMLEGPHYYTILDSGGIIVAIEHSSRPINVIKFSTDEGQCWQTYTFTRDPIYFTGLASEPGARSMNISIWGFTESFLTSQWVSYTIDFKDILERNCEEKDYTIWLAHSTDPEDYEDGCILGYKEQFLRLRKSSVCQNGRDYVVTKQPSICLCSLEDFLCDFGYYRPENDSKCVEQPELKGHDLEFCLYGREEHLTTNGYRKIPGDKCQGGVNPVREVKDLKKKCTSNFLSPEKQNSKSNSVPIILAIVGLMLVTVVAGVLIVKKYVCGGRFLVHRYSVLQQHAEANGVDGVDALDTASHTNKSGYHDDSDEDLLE
procedure summary: cell-based or functional assay
Ends that are not written are not given here. * marks the point of attachment. Azidoacetyl = [N-]=[N+]=NCC(=O)*
State just the number; it will be interpreted in MFI.

Please report the recorded Mean Fluorescence Intensity (MFI), uptake 37C-4C, at 37 nM for XLYENKPKRPYIL (not fully specified; X at position 1 is 2-azido-acetyl lysine, joined via triazolo-BCN carbamate / 6-aminohexanol linker to 5' end of … (SEQ ID NO 2, uniform MOE, phosphodiester, 3'-Cy3)) [Compound No. 1270698, XLYENKPKRPYIL peptide conjugated to 20-mer MOE oligonucleotide with 3'-Cy3] . 48

Please report the recorded Mean Fluorescence Intensity (MFI), uptake 37C-4C, at 37 nM for KLYENKPRKPYIL (not fully specified (residue 1)) [Compound No. 1270696, XLYENKPRKPYIL peptide conjugated to 20-mer MOE oligonucleotide with 3'-Cy3] . 61

Please report the recorded Mean Fluorescence Intensity (MFI), uptake 37C-4C, at 37 nM for K(Azidoacetyl)LYENKPKKPYIL (not fully specified; printed as 2-azido-acetyl-KLYENKPKKPYIL; also: azide joined via triazolo-BCN carbamate/6-aminohexanol linker to 5' end of 20-mer MOE oligonucleotide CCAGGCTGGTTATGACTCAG (uniform MOE, phosphodiester, 3'-Cy3)) [Compound No. 1270697, … peptide conjugated to 20-mer MOE oligonucleotide with 3'-Cy3] . 51

Please report the recorded Mean Fluorescence Intensity (MFI), uptake 37C-4C, at 37 nM for XLYENKPRRPYIL (not fully specified; position 1 printed dK (X = 2-azido-acetyl lysine); side chain joined via triazolo-BCN carbamate / 6-aminohexanol linker to the 5' end of oligonucleotide … (SEQ ID NO 2, uniform MOE, phosphodiester, 3'-Cy3)) . 47
